Data provenance is patent US20260209152A1.

Entries annotated with measured pEC50
Tested on: primary human keratinocytes
EXPERIMENT NOTES: Cell viability in keratinocyte IL-8 assay (assay number 1244)
Assay type: cell-based
REPORTED CONDITIONS: Homo sapiens, Keratinocyte; cell viability in IL-8 assay; read-out: Abs EC50: Viab (1244)
Notebook: values listed as pEC50 are -log10 of the concentration (mol/L).

Incoming: Form field: reported pEC50 of CCOc1cc(O)cc(/C=C/c2ccc(NC(=O)C(=O)O)c(OC)c2)c1CC=C(C)C
Outgoing: 5.30

Incoming: Entry COc1cc(/C=C/c2cc(O)cc(OC)c2CC=C(C)C)ccc1NC=O has what pEC50?
Outgoing: 7.49

Incoming: Could you tell me which pEC50 is on file for COc1cc(/C=C/c2cc(O)cc(OC)c2CC=C(C)C)ccc1NC(=O)CN ?
Outgoing: 6.38

###

Test system: Pancreatic HPAFII
EXPERIMENT NOTES: CellTiter Glo cell viability assay
Format: cell-based, human
REPORTED CONDITIONS: Homo sapiens; HPAF-II/CRL-1997; 11 dilutions 3-0.00001 μM; read-out: IC50
METRIC: IC50 (nM)
State just the number; it will be interpreted in nM.

A selection of reference data follows.
>  <COMPOUND>
CCOc1cc(O)cc(/C=C/c2ccc(O)c(O)c2)c1CC=C(C)C [Compound 20]

>  <METRIC>
IC50

>  <READING>
638

$$$$
>  <COMPOUND>
COc1cc(/C=C/c2cc(O)cc(OC)c2CC=C(C)C)ccc1O [Compound 1]

>  <METRIC>
IC50

>  <READING>
417

$$$$
>  <COMPOUND>
CCOc1cc(O)cc(/C=C/c2ccc(NC=O)c(OC)c2)c1CC=C(C)C [Compound 28]

>  <METRIC>
IC50

>  <READING>
111

$$$$
>  <COMPOUND>
CCOc1cc(O)cc(/C=C/c2ccc(O)c(OC)c2)c1CC=C(C)C [Compound 8]

>  <METRIC>
IC50

>  <READING>
242

$$$$

Continue with the next compound.
Incoming: Tell me the measured IC50 of COc1cc(/C=C/c2cc(O)cc(OC)c2CC=C(C)C)ccc1NC=O [Compound 27] , please.
Outgoing: 102

###

System: Hypo-pharynx UPCI: SCC152
EXPERIMENT NOTES: CellTiter Glo cell viability assay
Type: cell-based, human
REPORTED CONDITIONS: Homo sapiens, 72 h; 3 Days of treatment; 18 2-fold dilutions 5-0.00003 μM; read-out: Average IC50
METRIC: pIC50
// returns pIC50 (minus log10 of molar concentration), number only

>  <INPUT SMILES>
COc1cc(/C=C/c2cc(O)cc(OC)c2CC=C(C)C)ccc1O

>  <STUDY SYSTEM>
Hypo-pharynx UPCI: SCC152

>  <READING>
7.33

$$$$

Next molecule, please.
Incoming: Item CCOc1cc(O)cc(/C=C/c2ccc(O)c(OC)c2)c1CC=C(C)C has what recorded pIC50?
Outgoing: 7.64

###

System: Tongue UPCI: SCC090
EXPERIMENT NOTES: CellTiter Glo cell viability assay
Format: cell-based, human
REPORTED CONDITIONS: Homo sapiens; UPCI: SCC090/CRL-3239; 11 dilutions 3-0.00001 μM; read-out: IC50
Quick reference for log10 IC50 among some molecules
Parameter value (number): base-10 log of IC50 in nM.

>  <INPUT SMILES>
CCOc1cc(O)cc(/C=C/c2ccc(O)c(O)c2)c1CC=C(C)C

>  <READING>
1.68

$$$$
>  <INPUT SMILES>
COc1cc(/C=C/c2cc(O)cc(OC)c2CC=C(C)C)ccc1NC=O

>  <READING>
1.30

$$$$
>  <INPUT SMILES>
CCOc1cc(O)cc(/C=C/c2ccc(NC=O)c(OC)c2)c1CC=C(C)C

>  <READING>
1.75

$$$$
>  <INPUT SMILES>
CCOc1cc(O)cc(/C=C/c2ccc(O)c(OC)c2)c1CC=C(C)C

>  <READING>
-0.30

$$$$

Turning to the following molecule.
Incoming: Returns the measured log10 IC50 for the input molecule. Input: COc1cc(/C=C/c2cc(O)cc(OC)c2CC=C(C)C)ccc1O
Outgoing: -0.05

###

Tested on: human CD4-positive T-cells
EXPERIMENT NOTES: Cell viability in T-cell IL-2 & IL-4 assay (assay number 1299)
Format: cell-based
REPORTED CONDITIONS: Homo sapiens, CD4 positive; T-cell IL-2 & IL-4 assay; read-out: EC50, cell viability
Known pEC50 of a selection of molecules
// pEC50 is dimensionless: -log10 of concentration (M)

>  <INPUT SMILES>
COc1cc(/C=C/c2cc(O)cc(OC)c2CC=C(C)C)ccc1NC=O

>  <STUDY SYSTEM>
human CD4-positive T-cells

>  <pEC50>
5.36

$$$$

Incoming: Report pEC50 for CCOc1cc(O)cc(/C=C/c2ccc(NC=O)c(OC)c2)c1CC=C(C)C tested on human CD4-positive T-cells.
Outgoing: 5.63

###

Parameter cytotoxicity: see the listing below.
EXPERIMENT NOTES: Cell viability in keratinocyte IL-8 assay (assay number 1244)
Assay type: cell-based, human
REPORTED CONDITIONS: human, primary human keratinocytes induced with IL-17A and TNFα; maximum reduction of cell viability in IL-8 assay; read-out: Max Eff.: Viab (1244)
Answer with a number only, understood to be in %.

>  <INPUT SMILES>
CCOc1cc(O)cc(/C=C/c2ccc(NC(=O)C(=O)O)c(OC)c2)c1CC=C(C)C

>  <U>
%

>  <cytotoxicity>
72

$$$$

Incoming: May I ask what cytotoxicity has been recorded for COc1cc(/C=C/c2cc(O)cc(OC)c2CC=C(C)C)ccc1NC(=O)CN ?
Outgoing: 100

Incoming: Looking for the measured cytotoxicity of CCOc1cc(O)cc(/C=C/c2ccc(O)c(O)c2)c1CC=C(C)C , can you help?
Outgoing: 76

Incoming: Return reported cytotoxicity; argument: COc1cc(/C=C/c2cc(O)cc(OC)c2CC=C(C)C)ccc1O
Outgoing: 92

Incoming: Dear colleague, I am looking for the recorded cytotoxicity of the following compound: CCOc1cc(O)cc(/C=C/c2ccc(O)c(OC)c2)c1CC=C(C)C
Outgoing: 101

###

Test system: Bladder 5637
EXPERIMENT NOTES: CellTiter Glo cell viability assay
Assay type: cell-based, human
REPORTED CONDITIONS: Homo sapiens, 120 h; Day 5 upon drug treatment; 10 dosages 0.0001-20 μM (Compound 8: 18 dosages 0.000038146 to 5 μM); read-out: IC50
The following compounds are listed with their measured IC50 values.

Answered cases to consult:
>  <INPUT SMILES>
COc1cc(/C=C/c2cc(O)cc(OC)c2CC=C(C)C)ccc1N

>  <IC50>
65.3 nM

$$$$
>  <INPUT SMILES>
COC(=O)CNc1ccc(/C=C/c2cc(O)cc(OC)c2CC=C(C)C)cc1OC

>  <IC50>
85.9 nM

$$$$
>  <INPUT SMILES>
COc1cc(/C=C/c2cc(O)cc(OC)c2CC=C(C)C)cc(C)c1O

>  <IC50>
104 nM

$$$$
>  <INPUT SMILES>
COc1cc(/C=C/c2cc(O)cc(OC)c2CC=C(C)C)ccc1O

>  <IC50>
30.6 nM

$$$$
>  <INPUT SMILES>
CCOc1cc(O)cc(/C=C/c2ccc(O)c(OC)c2)c1CC=C(C)C

>  <IC50>
~9.43 nM

$$$$

As a next step, examine the compound that follows.
Incoming: Using the record for COc1cc(/C=C/c2cc(O)cc(OC)c2CC=C(C)C)ccc1NC(C)=O , report its IC50.
Outgoing: 67.4 nM

###

Reported log10(IC50) is given for each of the following compounds.
Tested on: Lung NCI-H1573
EXPERIMENT NOTES: CellTiter Glo cell viability assay
Format: cell-based, human
REPORTED CONDITIONS: Homo sapiens; NCI-H1573/CRL-5877; 11 dilutions 3-0.00001 μM; read-out: IC50
Procedure: 1.7*10^3 cells/well were seeded in quadruplicates in 96-well plate after plating. Drugs were added at 5 μM and 2-fold dilutions over 18 concentrations (0.000038146-5 […] range) to generate a dose-response curve. Cell growth was assessed on day 1, 3 and 5 after drug treatments using the CellTiter Glo Luminescence Cell Viability Assay (Promega) according to manufacturer's protocol. Thermo Scientific Varioskan LUX Multimode Microplate instrument was used for plate reading. […]
Friendly reminder: values = log10 of IC50, unit nM.

Known log10(IC50) results, listed for orientation:
>  <INPUT SMILES>
CCOc1cc(O)cc(/C=C/c2ccc(O)c(O)c2)c1CC=C(C)C

>  <log10(IC50)>
1.75

$$$$
>  <INPUT SMILES>
COc1cc(/C=C/c2cc(O)cc(OC)c2CC=C(C)C)ccc1NC=O

>  <log10(IC50)>
1.68

$$$$
>  <INPUT SMILES>
CCOc1cc(O)cc(/C=C/c2ccc(O)c(OC)c2)c1CC=C(C)C

>  <log10(IC50)>
1.53

$$$$
>  <INPUT SMILES>
CCOc1cc(O)cc(/C=C/c2ccc(NC=O)c(OC)c2)c1CC=C(C)C

>  <log10(IC50)>
1.33

$$$$

Now look at this one.
Incoming: # input compound: COc1cc(/C=C/c2cc(O)cc(OC)c2CC=C(C)C)ccc1O ; wanted: its log10(IC50)
Outgoing: 2.44
